- Test system: adenylate cyclase in isolated membranes of porcine adrenal cortices
- Experiment description: Stimulation of adenylate cyclase in isolated membranes, in vitro test according to Mohr and Hesch
- Assay type: biochemical
- Condition set: relative to recombinant hPTH (=100); stimulation beyond the base level
Measured attribute: Adenylate cyclase (%) relative activity
Quick note: give the figure in %, leave out the unit.

Incoming: Any idea what its Adenylate cyclase (%) relative activity is? The molecule is E4R: hPTH variant Glu(4) -> Arg(4), lengthened N-terminally by one proline (protein, UniProt P01270 32-115, looked up, variant E4R, Parathyroid hormone N-terminal proline extension, hPTH variant Glu(4) -> Arg(4), lengthened N-terminally by one proline) Parathyroid hormone: SVSRIQLMHNLGKHLNSMERVEWLRKKLQDVHNFVALGAPLAPRDAGSQRPRKKEDNVLVESHEKSLGEADKADVNVLTKAKSQ
Outgoing: 47

Incoming: Any idea what its Adenylate cyclase (%) relative activity is? The molecule is L11K: hPTH variant Leu(11) -> Lys(11), lengthened N-terminally by one proline (protein, UniProt P01270 32-115, looked up, variant L11K, Parathyroid hormone N-terminal proline extension, hPTH variant Leu(11) -> Lys(11), lengthened N-terminally by one proline) Parathyroid hormone: SVSEIQLMHNKGKHLNSMERVEWLRKKLQDVHNFVALGAPLAPRDAGSQRPRKKEDNVLVESHEKSLGEADKADVNVLTKAKSQ
Outgoing: 89

Incoming: Any idea what its Adenylate cyclase (%) relative activity is? The molecule is K13P: hPTH variant Lys(13) -> Pro(13), lengthened N-terminally by one proline (protein, UniProt P01270 32-115, looked up, variant K13P, Parathyroid hormone N-terminal proline extension, hPTH variant Lys(13) -> Pro(13), lengthened N-terminally by one proline) Parathyroid hormone: SVSEIQLMHNLGPHLNSMERVEWLRKKLQDVHNFVALGAPLAPRDAGSQRPRKKEDNVLVESHEKSLGEADKADVNVLTKAKSQ
Outgoing: 6

Incoming: Any idea what its Adenylate cyclase (%) relative activity is? The molecule is H32K: hPTH variant His(32) -> Lys(32), lengthened N-terminally by one proline (protein, UniProt P01270 32-115, looked up, variant H32K, Parathyroid hormone N-terminal proline extension, hPTH variant His(32) -> Lys(32), lengthened N-terminally by one proline) Parathyroid hormone: SVSEIQLMHNLGKHLNSMERVEWLRKKLQDVKNFVALGAPLAPRDAGSQRPRKKEDNVLVESHEKSLGEADKADVNVLTKAKSQ
Outgoing: 85

Incoming: Any idea what its Adenylate cyclase (%) relative activity is? The molecule is E4R, R20E: hPTH variant Glu(4) Arg(20) -> Arg(4), Glu(20), lengthened N-terminally by one proline (protein, UniProt P01270 32-115, looked up, variant E4R R20E, Parathyroid hormone N-terminal proline extension, hPTH variant Glu(4) Arg(20) -> Arg(4), Glu(20), lengthened N-terminally by one proline) Parathyroid hormone: SVSRIQLMHNLGKHLNSMEEVEWLRKKLQDVHNFVALGAPLAPRDAGSQRPRKKEDNVLVESHEKSLGEADKADVNVLTKAKSQ
Outgoing: 20

Incoming: Any idea what its Adenylate cyclase (%) relative activity is? The molecule is K27L: hPTH variant Lys(27) -> Leu(27), lengthened N-terminally by one proline (protein, UniProt P01270 32-115, looked up, variant K27L, Parathyroid hormone N-terminal proline extension, hPTH variant Lys(27) -> Leu(27), lengthened N-terminally by one proline) Parathyroid hormone: SVSEIQLMHNLGKHLNSMERVEWLRKLLQDVHNFVALGAPLAPRDAGSQRPRKKEDNVLVESHEKSLGEADKADVNVLTKAKSQ
Outgoing: 35

Incoming: Any idea what its Adenylate cyclase (%) relative activity is? The molecule is H32L: hPTH variant His(32) -> Leu(32), lengthened N-terminally by one proline (protein, UniProt P01270 32-115, looked up, variant H32L, Parathyroid hormone N-terminal proline extension, hPTH variant His(32) -> Leu(32), lengthened N-terminally by one proline) Parathyroid hormone: SVSEIQLMHNLGKHLNSMERVEWLRKKLQDVLNFVALGAPLAPRDAGSQRPRKKEDNVLVESHEKSLGEADKADVNVLTKAKSQ
Outgoing: 93

Incoming: Any idea what its Adenylate cyclase (%) relative activity is? The molecule is K27R: hPTH variant Lys(27) -> Arg(27), lengthened N-terminally by one proline (protein, UniProt P01270 32-115, looked up, variant K27R, Parathyroid hormone N-terminal proline extension, hPTH variant Lys(27) -> Arg(27), lengthened N-terminally by one proline) Parathyroid hormone: SVSEIQLMHNLGKHLNSMERVEWLRKRLQDVHNFVALGAPLAPRDAGSQRPRKKEDNVLVESHEKSLGEADKADVNVLTKAKSQ
Outgoing: 90

Incoming: Any idea what its Adenylate cyclase (%) relative activity is? The molecule is Q29N: hPTH variant Gln(29) -> Asn(29), lengthened N-terminally by one proline (protein, UniProt P01270 32-115, looked up, variant Q29N, Parathyroid hormone N-terminal proline extension, hPTH variant Gln(29) -> Asn(29), lengthened N-terminally by one proline) Parathyroid hormone: SVSEIQLMHNLGKHLNSMERVEWLRKKLNDVHNFVALGAPLAPRDAGSQRPRKKEDNVLVESHEKSLGEADKADVNVLTKAKSQ
Outgoing: 99

Incoming: Any idea what its Adenylate cyclase (%) relative activity is? The molecule is Q29A: hPTH variant Gln(29) -> Ala(29), lengthened N-terminally by one proline (protein, UniProt P01270 32-115, looked up, variant Q29A, Parathyroid hormone N-terminal proline extension, hPTH variant Gln(29) -> Ala(29), lengthened N-terminally by one proline) Parathyroid hormone: SVSEIQLMHNLGKHLNSMERVEWLRKKLADVHNFVALGAPLAPRDAGSQRPRKKEDNVLVESHEKSLGEADKADVNVLTKAKSQ
Outgoing: 104

Incoming: Any idea what its Adenylate cyclase (%) relative activity is? The molecule is H32R: hPTH variant His(32) -> Arg(32), lengthened N-terminally by one proline (protein, UniProt P01270 32-115, looked up, variant H32R, Parathyroid hormone N-terminal proline extension, hPTH variant His(32) -> Arg(32), lengthened N-terminally by one proline) Parathyroid hormone: SVSEIQLMHNLGKHLNSMERVEWLRKKLQDVRNFVALGAPLAPRDAGSQRPRKKEDNVLVESHEKSLGEADKADVNVLTKAKSQ
Outgoing: 87

Incoming: Any idea what its Adenylate cyclase (%) relative activity is? The molecule is R20E: hPTH variant Arg(20) -> Glu(20), lengthened N-terminally by one proline (protein, UniProt P01270 32-115, looked up, variant R20E, Parathyroid hormone N-terminal proline extension, hPTH variant Arg(20) -> Glu(20), lengthened N-terminally by one proline) Parathyroid hormone: SVSEIQLMHNLGKHLNSMEEVEWLRKKLQDVHNFVALGAPLAPRDAGSQRPRKKEDNVLVESHEKSLGEADKADVNVLTKAKSQ
Outgoing: 0
